Cited source for all entries: patent US20150093336A1

Molecular target: T1, Recombinant human MMR (R&D systems) (human, UniProt P22897 19-1383)
T1 construct: Antigen of the PE-ELISA and the SPR; also called hMMR; recombinant hMMR
T1 sequence: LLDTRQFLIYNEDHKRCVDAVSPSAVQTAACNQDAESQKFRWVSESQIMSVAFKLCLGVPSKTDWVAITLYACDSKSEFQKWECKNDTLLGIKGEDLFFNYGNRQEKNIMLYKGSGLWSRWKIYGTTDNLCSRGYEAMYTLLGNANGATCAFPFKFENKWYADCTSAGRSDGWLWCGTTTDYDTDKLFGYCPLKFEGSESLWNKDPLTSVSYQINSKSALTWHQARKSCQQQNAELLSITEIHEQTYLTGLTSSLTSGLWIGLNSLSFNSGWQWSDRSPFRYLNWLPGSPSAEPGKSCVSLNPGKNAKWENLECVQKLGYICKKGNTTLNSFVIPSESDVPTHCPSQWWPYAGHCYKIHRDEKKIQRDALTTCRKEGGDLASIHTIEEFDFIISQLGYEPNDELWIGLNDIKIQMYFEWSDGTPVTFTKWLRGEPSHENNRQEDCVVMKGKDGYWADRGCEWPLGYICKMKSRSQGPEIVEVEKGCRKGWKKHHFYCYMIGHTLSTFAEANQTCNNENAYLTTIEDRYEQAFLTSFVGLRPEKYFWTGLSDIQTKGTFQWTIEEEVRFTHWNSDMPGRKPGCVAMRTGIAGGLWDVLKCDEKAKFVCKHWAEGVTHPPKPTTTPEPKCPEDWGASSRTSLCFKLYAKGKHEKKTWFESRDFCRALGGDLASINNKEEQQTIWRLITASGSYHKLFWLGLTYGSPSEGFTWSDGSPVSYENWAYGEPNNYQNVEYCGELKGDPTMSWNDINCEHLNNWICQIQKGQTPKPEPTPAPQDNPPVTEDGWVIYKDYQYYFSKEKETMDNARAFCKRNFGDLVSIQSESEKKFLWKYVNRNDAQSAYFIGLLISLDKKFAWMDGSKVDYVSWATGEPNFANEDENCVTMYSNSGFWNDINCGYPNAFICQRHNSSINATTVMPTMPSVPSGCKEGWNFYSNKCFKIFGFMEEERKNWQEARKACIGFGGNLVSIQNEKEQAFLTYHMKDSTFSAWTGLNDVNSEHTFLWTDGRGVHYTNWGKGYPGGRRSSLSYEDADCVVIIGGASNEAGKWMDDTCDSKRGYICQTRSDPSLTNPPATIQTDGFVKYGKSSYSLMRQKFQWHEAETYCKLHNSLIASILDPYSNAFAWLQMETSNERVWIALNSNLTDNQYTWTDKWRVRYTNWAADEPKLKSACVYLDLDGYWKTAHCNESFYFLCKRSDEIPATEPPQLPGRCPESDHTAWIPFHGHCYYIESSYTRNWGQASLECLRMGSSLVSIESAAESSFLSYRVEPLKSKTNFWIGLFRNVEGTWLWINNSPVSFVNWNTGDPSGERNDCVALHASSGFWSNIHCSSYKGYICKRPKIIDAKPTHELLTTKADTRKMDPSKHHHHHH
Test: SPR, BIAcore T100; human MMR on CM5 chip, sdAb as analyte
QUANTITY_KIND: kon (M⁻¹ s⁻¹)

NbhmMMRm24.31 (VHH, Produced from pMECS with C-terminal HA and 6xHis tag) VHH: QVQLQESGGGLVQPGGSLRLSCTATGFTLKNHHIGWLRQAPGKEREGVASINSSGGSTNYADSVQGRFTISRDNAKNTVFLQMNSLKSEDTAVYYCARLRRYYGLNLDPGSYDYWGQGTQVTVSS : 260000
NbhMMRm1.33 (VHH, Produced from pMECS in E. coli WK6 with C-terminal HA and 6xHis tag; also called NbMMRm1.33) VHH: QVQLQESGGGLVQPGGSLRLSCAASGFTLDNYTVAWFRQAPGKEREGVSCISSSGGSTNYADSVKGRFTISRDNSKKSVYLQMNSLKPEDTAIYTCAAERAPPYYSGYYFFDSTCVAASYDYWGQGTQVTVSS : 200000

[I] NbhMMRm15.43 (VHH, Produced from pMECS with C-terminal HA and 6xHis tag) VHH: QVQLQESGGTLVQPGGSLRLSCAASGSTFSINNMGWYRQAPGKQRELVAGITGGNTHYADSVKGRFTISRDNAKNTMYLQMNGLKPEDTAVYYCNANWGAYWGQGTQVTVSS
[II] NbhMMRm11.5 (VHH, Produced from pMECS with C-terminal HA and 6xHis tag) VHH: QVQLQESGGGLVQPGGSLMLSCAASGNIFTINRMGWYRQAPGKQRELVAAITSGGNTNYADSVKGRFTISRDNAKNTVYLQMNSLKPEDTAVYYCNAAIVTMTSPYSDYWGQGTQVTVSS
Of I and II , whose reported kon is the larger number? Output the label that corresponds to your choice.
II
